B1: PHTF1 (parent)
chain: SRHLNSQVKKTTTRWCHIVRDSDS

- Variants of: B1
- assay_method_text: protein stability index of a GFP-peptide fusion (GPS, HEK-293T) (PSI 1-6); higher = more stable;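 also: lentivirally expressed fusions sorted by FACS into six bins by GFP to DsRed ratio, PSI derived from sequencing read proportions per bin multiplied by bin number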
- condition_parameters: c terminus: a fixed tail appended
Exercise: state measured protein stability index for each of the variants provided.
Please state the value as a number alone, without comment.

-- ask Fill in: protein stability index of S6W is ___
-- reply 2.5

-- ask Look at this variant and give its reported protein stability index. L4T
-- reply 2.06

-- ask Fill in the blank: the reported protein stability index of H3N is ____.
-- reply 1.69

-- ask Any idea what its protein stability index is? The variant is R20I
-- reply 1.18

-- ask Which protein stability index reading was recorded for the variant V19S ?
-- reply 2.75

-- ask What value of protein stability index has been reported for the following variant? H17N
-- reply 2.43

-- ask # lookup: protein stability index of T11E
-- reply 2.11

-- ask protein stability index lookup needed for V19N , thanks.
-- reply 2.55

-- ask Param item = I18N ; retrieve measured protein stability index.
-- reply 3.3

-- ask Returns the measured protein stability index for the input variant. Input: V8K
-- reply 1.79

-- ask Can you look up the measured protein stability index of D21A for me?
-- reply 2.5

-- ask State the recorded protein stability index for this entry: H17V
-- reply 1.71

-- ask Report protein stability index for H17M please.
-- reply 1.91

-- ask Dear colleague, I am looking for the recorded protein stability index of the following variant: D23K
-- reply 1.74

-- ask Could you share which protein stability index value was measured for W15Q ?
-- reply 4.35

-- ask Any idea what its protein stability index is? The variant is Q7P
-- reply 2.69

-- ask Which protein stability index is listed for S24T ?
-- reply 2.99

-- ask Give its protein stability index value. Item: I18G
-- reply 3.15

-- ask Name the reported protein stability index value associated with the variant T11W
-- reply 2.02

-- ask Using the record for R20D , report its protein stability index.
-- reply 2.27

-- ask Please look up its protein stability index: K9V
-- reply 3.18

-- ask Given T12Y , state its recorded protein stability index.
-- reply 1.5

-- ask Which protein stability index is reported for this variant? T11A
-- reply 3.08

-- ask If you can, please state the reported protein stability index value of D21M .
-- reply 1.82

-- ask # query: protein stability index of entry T11H
-- reply 2.95

-- ask Could you tell me which protein stability index is on file for I18Q ?
-- reply 3.09

-- ask GET /values?readout=protein stability index&item= H17C
-- reply 1.66

-- ask Look up protein stability index for this variant: W15T
-- reply 3.87

-- ask Request the reported protein stability index associated with H3Q
-- reply 2.28

-- ask Entry T12V has what protein stability index?
-- reply 1.94

-- ask Returns the measured protein stability index for the input variant. Input: K10W
-- reply 1.97

-- ask Report protein stability index for S24E please.
-- reply 1.9

Source of measurements: the supplement of paper PMC10567573
